Test system: PMEL17
Experiment: Cross-reactivity (cross-specificity profile) of anti-PMEL17 IgGs in dose response FACS
Type: binding
Parameters: key: h/c/r/m: human/cyno/rat/mouse; h/c/r: human/cyno/rat; h/c/(m): human/cyno/mouse; h/c: human/cyno
Conditions: h human, c cyno, r rat, m mouse
measured_property: Cross spe profile (based on C14 detection ab)

molecule	recorded_result
Y010417: anti-PMEL17 antibody (IgG) (antibody, V domains shown) VH: EVQLVQSGAEVKKPGESLKISCKGSGYSFTSYWIGWVRQMPGKGLEWMGIIYPGDSDTRYSPSFQGQVTISADKSISTAYLQWSSLKASDTAMYYCARGSSAASGLSGDLWGQGTLVTVSS VL: DIQMTQSPSSLSASVGDRVTITCRASQSISSYLNWYQQKPGKAPKLLIYAASSLQSGVPSRFSGSGSGTDFTLTISSLQPEDFATYYCQQDYYSPFTFGQGTKVEIK	h/c

The origin of these recorded values is patent US11779649B2.
